Assay: Particle size distribution of ORZY-05 by static automated imaging (Morphologi 4)
Assay type: physicochemical
Conditions: ORZY-05 particles
Each record is given Met if its reported Number CE Diameter D10 is strictly below 1 μm. Records at or above 1 μm are given Not met.

Use the examples below as a reference point.
>>> qualitative_label("O=C(O)CC(O)(CC(=O)O)C(=O)O.[O-][n+]1cccc(/C(Cl)=N/OC[C@H](O)CN2CCCCC2)c1 [compound 1004, arimoclomol citrate]")
"Not met"
>>> qualitative_label("O=C(O)CC(O)(CC(=O)O)C(=O)O.[O-][n+]1cccc(/C(Cl)=N/OC[C@H](O)CN2CCCCC2)c1 [18-001, arimoclomol citrate]")
"Met"
>>> qualitative_label("O=C(O)CC(O)(CC(=O)O)C(=O)O.[O-][n+]1cccc(/C(Cl)=N/OC[C@H](O)CN2CCCCC2)c1 [17-002, arimoclomol citrate]")
"Met"
>>> qualitative_label("O=C(O)CC(O)(CC(=O)O)C(=O)O.[O-][n+]1cccc(/C(Cl)=N/OC[C@H](O)CN2CCCCC2)c1 [17-001, arimoclomol citrate]")
"Met"

Kindly consider the entry below.
Inquiry: Hi there! Is Number CE Diameter D10 for O=C(O)CC(O)(CC(=O)O)C(=O)O.[O-][n+]1cccc(/C(Cl)=N/OC[C@H](O)CN2CCCCC2)c1 [18-003, arimoclomol citrate] below 1 μm, do you know?
Reply text: Not met
